So I've got a bunch of compounds here, and I need their IC50 values.
biological target: His-PKC-theta (Homo sapiens, UniProt Q04759); construct: His; purchased Invitrogen; assay: PKC-theta Assay (384-well time resolved fluorescence, IMAP TR-FRET); format: biochemical; conditions: read-out: Act. Level (IC50 in the PKC-theta Assay)
Sequence (Q04759 whole entry): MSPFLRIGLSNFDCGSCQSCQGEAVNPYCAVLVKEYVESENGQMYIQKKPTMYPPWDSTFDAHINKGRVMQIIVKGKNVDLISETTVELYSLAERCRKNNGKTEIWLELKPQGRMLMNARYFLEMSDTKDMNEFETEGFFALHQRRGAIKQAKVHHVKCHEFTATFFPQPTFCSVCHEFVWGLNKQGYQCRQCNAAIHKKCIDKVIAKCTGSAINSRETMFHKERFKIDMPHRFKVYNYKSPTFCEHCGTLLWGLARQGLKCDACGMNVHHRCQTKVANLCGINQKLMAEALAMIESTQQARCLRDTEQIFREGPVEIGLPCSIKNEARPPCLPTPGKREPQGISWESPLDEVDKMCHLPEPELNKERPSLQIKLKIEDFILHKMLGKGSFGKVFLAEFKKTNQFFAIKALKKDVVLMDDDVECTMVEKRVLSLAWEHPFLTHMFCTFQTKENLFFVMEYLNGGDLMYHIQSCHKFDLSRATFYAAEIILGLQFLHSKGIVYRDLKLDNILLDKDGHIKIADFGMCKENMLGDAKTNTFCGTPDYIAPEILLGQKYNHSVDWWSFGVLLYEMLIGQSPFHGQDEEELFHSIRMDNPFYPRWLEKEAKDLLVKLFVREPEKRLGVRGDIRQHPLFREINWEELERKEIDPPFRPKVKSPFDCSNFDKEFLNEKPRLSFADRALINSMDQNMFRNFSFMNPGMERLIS

Illustrative cases are given below, each with its answer.
CC1(C)C[C@H](Nc2nc(NCCc3cc4cc(C#N)ccc4[nH]3)ncc2C#N)CC[C@@H]1O :: 100 to 800 nM
O[C@H]1CC[C@@H](Nc2nc(NCc3cncnc3C(F)(F)F)ncc2C(F)(F)F)CC1 :: < 100 nM
C[C@@H]1CC[C@H](Nc2nc(NCc3cnccc3C(F)(F)F)ncc2C(F)(F)F)C[C@H]1O :: < 100 nM

Hi, could you look up IC50 for each item in my list?
1. CNC(=O)[C@H]1CC[C@@H](Nc2nc(NCc3cncnc3Oc3cccc(C)c3)ncc2C#N)CC1
2. Cc1cccc2c1NC(=O)C2CCNc1ncc(C#N)c(N[C@@H]2CC[C@H](O)C(C)(C)C2)n1 (stereo partly drawn)
3. CCc1ncncc1CNc1ncc(C#N)c(N[C@@H]2C[C@@H](O)C2(C)C)n1
4. COC1CC(Nc2nc(NCc3cnccc3C(F)(F)F)ncc2C(F)(F)F)C1(C)C (stereo not drawn) [Cmpd 103]
5. CC1(C)C[C@H](Nc2nc(NCCc3noc(C(F)(F)F)n3)ncc2C#N)CC[C@@H]1O

< 100 nM
< 100 nM
100 to 800 nM
100 to 800 nM
800 to 2000 nM
